System: Caenorhabditis elegans N2
protocolDescription: mean nematode size ln(EXT) after 48 h, plate-adjusted (DMSO control set to 6) (ln(EXT), control-adjusted); higher = larger nematodes / less growth inhibition
reportedConditions: 1 µM; exposure time 48 h
Structures can show the parent of a compound that is named as a salt.
# key: entry, value: mean nematode size ln(EXT) (ln)

{"compound": "Cc1ccccc1O", "mean nematode size ln(EXT) (ln)": 5.9}
{"compound": "CC(C)N1C(=O)c2ccccc2NS1(=O)=O", "mean nematode size ln(EXT) (ln)": 5.93}
{"compound": "Oc1ccccc1O", "mean nematode size ln(EXT) (ln)": 5.82}
{"compound": "CCCOC/C(=N\\c1ccc(Cl)cc1C(F)(F)F)n1ccnc1", "mean nematode size ln(EXT) (ln)": 6.09}
{"compound": "NNC(=O)c1ccncc1", "mean nematode size ln(EXT) (ln)": 5.82}
{"compound": "CN(C)CCOC(c1ccccc1)c1ccccc1 [Diphenhydramine hydrochloride]", "mean nematode size ln(EXT) (ln)": 5.9}
{"compound": "Oc1ccccc1Cl", "mean nematode size ln(EXT) (ln)": 5.99}
{"compound": "c1ccc(NNc2ccccc2)cc1 [1,2-Diphenylhydrazine]", "mean nematode size ln(EXT) (ln)": 5.72}
{"compound": "Cl[C@H]1[C@H](Cl)[C@@H](Cl)[C@@H](Cl)[C@H](Cl)[C@H]1Cl", "mean nematode size ln(EXT) (ln)": 5.98}

---

System: Caenorhabditis elegans N2
protocolDescription: lowest effective concentration for larval growth inhibition (size below effect threshold); higher = less potent
reportedConditions: exposure time 48 h
Where lowest effective concentration equals or exceeds 50 µM, the correct label is fulfilled; where it does not, the label is not fulfilled.

{"compound": "Nc1cccc(N)c1", "discreteLabel": "fulfilled"}
{"compound": "COP(=O)(OC)O/C(C)=C/C(=O)N(C)C", "discreteLabel": "fulfilled"}
{"compound": "CC(C)Oc1cc(-n2nc(C(C)(C)C)oc2=O)c(Cl)cc1Cl", "discreteLabel": "fulfilled"}
{"compound": "NC(=O)N1C(=O)C(C(=O)c2cc(Cl)cs2)c2cc(F)c(Cl)cc21 (stereo not given)", "discreteLabel": "not fulfilled"}
{"compound": "CCC(C)c1ccc(O)cc1 (stereo not given)", "discreteLabel": "fulfilled"}
{"compound": "CN=C=S [Methyl isothiocyanate]", "discreteLabel": "fulfilled"}
{"compound": "COc1ccc(C(=O)Nc2nc3ccccc3c(NCc3ccccc3)c2C#N)cc1 [N-[4-(benzylamino)-3-cyanoquinolin-2-yl]-4-methoxybenzamide]", "discreteLabel": "not fulfilled"}
{"compound": "O=C(Nc1ccc2[nH]ccc2c1)c1cc2cc(F)ccc2n1Cc1cccc(F)c1", "discreteLabel": "not fulfilled"}
{"compound": "COc1c(Cl)ccc(Cl)c1C(=O)O", "discreteLabel": "fulfilled"}
{"compound": "CCCCCCCCCCCCc1ccc(S(=O)(=O)O)cc1", "discreteLabel": "not fulfilled"}
{"compound": "Cc1cc(N=Nc2ccccc2C)ccc1N", "discreteLabel": "not fulfilled"}
{"compound": "CCSC(=O)N1CCCCCC1 [Molinate]", "discreteLabel": "not fulfilled"}
{"compound": "CNC(=O)Oc1cccc2c1OC(C)(C)O2", "discreteLabel": "fulfilled"}
{"compound": "CCCCCCC(=O)O", "discreteLabel": "fulfilled"}
{"compound": "CC[C@H](NC(=O)c1cc(F)ccc1NS(=O)(=O)c1cccc2cccnc12)c1ccccc1", "discreteLabel": "not fulfilled"}
{"compound": "CN(C)C(=O)Nc1ccc(Cl)c(Cl)c1", "discreteLabel": "fulfilled"}
{"compound": "[As]#[In] [Indium arsenide]", "discreteLabel": "fulfilled"}
{"compound": "COC(=O)c1ccccc1C(=O)O [Methyl hydrogen phthalate]", "discreteLabel": "fulfilled"}
{"compound": "CCCCC(CC)C(=O)O (stereo not given)", "discreteLabel": "fulfilled"}
{"compound": "Oc1c(Cl)cc(Cl)cc1Cl", "discreteLabel": "fulfilled"}
{"compound": "CNC(=O)N(C)c1nnc(C(C)(C)C)s1", "discreteLabel": "fulfilled"}
{"compound": "O=C(CCCN1CCC(O)(c2ccc(Cl)cc2)CC1)c1ccc(F)cc1", "discreteLabel": "not fulfilled"}
{"compound": "CCCCC(CC)COC(=O)CCCCC(=O)OCc1ccccc1 (stereo not given) [Benzyloctyl adipate (BOA)]", "discreteLabel": "fulfilled"}
{"compound": "Cc1oc(-c2ccccc2)nc1CCOc1cccc2c1ccn2CCC(=O)O", "discreteLabel": "fulfilled"}
{"compound": "CCCCOC(=O)c1ccccc1C(=O)O [Monobutyl phthalate]", "discreteLabel": "fulfilled"}

---

Tested on: Caenorhabditis elegans N2
protocolDescription: mean nematode size ln(EXT) after 48 h, plate-adjusted (DMSO control set to 6) (ln(EXT), control-adjusted); higher = larger nematodes / less growth inhibition
reportedConditions: 200 µM; exposure time 48 h
Where a name gives a salt, the structure may show the parent alone.
# key: entry, value: mean nematode size ln(EXT) (ln)
endpointLabel: mean nematode size ln(EXT) (ln)

{"molecule": "CN(C)C=O [N,N-Dimethylformamide]", "testResult": 5.78}
{"molecule": "CCOCCOCCO [Diethylene glycol monoethyl ether]", "testResult": 5.76}
{"molecule": "CC(C)(OOC(C)(C)c1ccccc1)c1ccccc1 [Dicumyl peroxide’-(Dioxydipropane-2,2-diyl)dibenzene)]", "testResult": 5.45}
{"molecule": "CCCCCCCC/C=C\\CCCCCCCC(=O)OC[C@@H](O)[C@H]1OC[C@H](O)[C@H]1O [Sorbitan, mono-(9Z)-9-octadecenoate]", "testResult": 5.34}
{"molecule": "C/C=C/C=C/C(=O)O [Sorbic acid]", "testResult": 5.7}
{"molecule": "O=P(Oc1ccccc1)(Oc1ccccc1)Oc1ccccc1 [Triphenyl phosphate]", "testResult": 3.66}
{"molecule": "CC1(C)C(=O)N(Cl)C(=O)N1Cl [1,3-Dichloro-5,5-dimethylhydantoin]", "testResult": 5.67}
{"molecule": "CCCc1cc(=O)[nH]c(=S)[nH]1 [6-Propyl-2-thiouracil]", "testResult": 5.74}
{"molecule": "CCNc1nc(Cl)nc(NC(C)(C)C#N)n1 [Cyanazine]", "testResult": 5.86}
{"molecule": "Cc1ccc(N)cc1 [4-Methyl-benzeneamine]", "testResult": 5.71}
{"molecule": "Cc1ccc(N)c(N)c1 [3,4-Diaminotoluene]", "testResult": 5.75}
{"molecule": "CCCCCCC(CCCCCCCCCCC(=O)OCC(COC(C)=O)OC(C)=O)OC(C)=O (stereo unspecified)", "testResult": 5.53}
{"molecule": "Cc1nn(-c2cc(NS(C)(=O)=O)c(Cl)cc2Cl)c(=O)n1C(F)F [Sulfentrazone]", "testResult": 5.5}
{"molecule": "CN1COCN(Cc2cnc(Cl)s2)/C1=N\\[N+](=O)[O-] [Thiamethoxam]", "testResult": 5.91}
{"molecule": "CCCCNC(=O)OCC#CI [3-Iodo-2-propynylbutylcarbamate]", "testResult": 3.17}
{"molecule": "Oc1ccc2ccccc2c1N=Nc1ccccc1 [Sudan I]", "testResult": 5.68}
{"molecule": "[N-]=[N+]=[N-] [Sodium azide]", "testResult": 5.49}
{"molecule": "CCOC(=O)CCC(=O)OCC [Butanedioic acid, diethyl ester]", "testResult": 5.75}
{"molecule": "CCCCCCCC=O [Octanal]", "testResult": 5.77}
{"molecule": "Cc1nc(N(C)C)nc(OC(=O)N(C)C)c1C [Pirimicarb]", "testResult": 5.96}
{"molecule": "CCCCC(CC)C(=O)O (stereo unspecified) [2-Ethylhexanoic acid]", "testResult": 6.12}
{"molecule": "COc1cc(-c2ccc(N)c(OC)c2)ccc1N [3,3'-Dimethoxybenzidine dihydrochloride]", "testResult": 6.4}
{"molecule": "CCCCCCOC(=O)CC(CC(=O)OCCCCCC)(OC(=O)CCC)C(=O)OCCCCCC [N-Butyryl tri-N-hexyl citrate]", "testResult": 5.83}
{"molecule": "CCCN(CCC)c1c([N+](=O)[O-])cc(C(F)(F)F)c(N)c1[N+](=O)[O-] [Prodiamine]", "testResult": 5.1}
{"molecule": "CCNc1cccc(C)c1 [N-Ethyl-3-methylaniline]", "testResult": 5.63}
{"molecule": "CCCCC(C#N)(Cn1cncn1)c1ccc(Cl)cc1 (stereo unspecified) [Myclobutanil]", "testResult": 4.8}
{"molecule": "Nc1c(Cl)c(F)nc(OCC(=O)O)c1Cl [Fluroxypyr]", "testResult": 5.64}
{"molecule": "CC(C)COC(=O)CCCCC(=O)OCC(C)C [Diisobutyl adipate]", "testResult": 5.38}
{"molecule": "CN(C)C(=O)Nc1cccc(C(F)(F)F)c1 [Fluometuron]", "testResult": 5.78}
{"molecule": "CNCc1ccc(NC(=O)c2c[nH]c3c2C(=O)CCC3)cc1", "testResult": 5.65}
{"molecule": "c1ccc(OP(Oc2ccccc2)Oc2ccccc2)cc1 [Triphenyl phosphite]", "testResult": 5.72}
{"molecule": "O=c1ccc(=O)[nH][nH]1 [Maleic hydrazide]", "testResult": 6.03}
{"molecule": "Clc1nc(Cl)c(Cl)c(Cl)c1Cl [Pentachloropyridine]", "testResult": 5.59}
{"molecule": "CCOP(=O)(OCC)Oc1nc(Cl)c(Cl)cc1Cl [Chlorpyrifos oxon]", "testResult": 3.15}
{"molecule": "NC(=O)NO [Hydroxyurea]", "testResult": 5.73}
{"molecule": "CC(C)C(=O)OCC(C)(C)C(OC(=O)C(C)C)C(C)C (stereo unspecified) [2,2,4-Trimethyl-1,3-pentanediol diisobutyrate]", "testResult": 5.68}
